All figures here come from paper PMC5540273.

Test system: FGFR2;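 further: KINOMEscan kinase panel screen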
Settings: concentration: 1 μM, replicates: in singlicate; n = 1
So I've got a bunch of compounds here, and I need their %Inh values.
Write it as a number; the unit % goes unstated.

Input: Output measured %Inh for this item: COc1cccc(C2=C(Nc3cc(Cl)c(O)c(Cl)c3)C(=O)NC2=O)c1 [SB-390767]
Output: 53

Input: Output measured %Inh for this item: O=c1cc(N2CCOCC2)nc2n(Cc3ccccc3F)ccn12 [GSK2297428]
Output: 12

Input: Output measured %Inh for this item: CNc1nc(-c2ccc3c(N)n[nH]c3c2)cc(N2C[C@@H](C(=O)NC3CCCCC3)OC[C@H]2C)n1 [GSK2375584]
Output: 27

Input: Output measured %Inh for this item: O=C1NC(=O)C(c2ccc(Cl)cc2)=C1Nc1ccc(O)cc1 [SB-340867]
Output: 0

Input: Output measured %Inh for this item: COC(=O)C(Cc1ccccc1)NC(=O)NC1CCN(c2ccnc(Nc3ccc(F)cc3)n2)C1 (stereo not drawn) [GSK1379714]
Output: 51

Input: Output measured %Inh for this item: COc1cccc(CNC(=O)NC2CCN(c3ccnc(Nc4ccc(F)cc4)n3)C2)c1 (stereo not drawn) [GSK1379723]
Output: 3

Input: Output measured %Inh for this item: FC(F)(F)c1ccccc1-c1cc(-c2c[nH]nc2-c2ccccn2)ccn1 [GW679396]
Output: 0

Input: Output measured %Inh for this item: O=C1NC(=O)C(c2ccc(Cl)cc2)=C1Nc1cccc(Cl)c1 [SB-317651]
Output: 0

Input: Output measured %Inh for this item: NS(=O)(=O)c1cccc(N/C=C2\C(=O)Nc3ccc(S(=O)(=O)Cc4c(Cl)cccc4Cl)cc32)c1 [GSK398099]
Output: 0

Input: Output measured %Inh for this item: Cc1cccc2c(-c3ccncn3)c(-c3ccc(F)cc3)nn12 [GW515532]
Output: 0

Input: Output measured %Inh for this item: COC(=O)C(NC(=O)NC1CCN(c2ccnc(Nc3ccc(F)cc3)n2)C1)c1ccccc1 (stereo not drawn) [GSK1379712]
Output: 0

Input: Output measured %Inh for this item: CN1c2ccc(-c3ccc(C(N)=O)cc3)cc2-c2[nH]ncc2S1(=O)=O
Output: 0

Input: Output measured %Inh for this item: Cn1cncc1C(=O)NC1CCN(c2ccnc(Nc3ccc(F)cc3)n2)C1 (stereo not drawn) [GSK1379717]
Output: 0

Input: Output measured %Inh for this item: Cl.Cl.Cl.N#Cc1ccc(CCNc2nccc(-c3cccc(CN4CCNCC4)c3)n2)cc1 [GSK2137462]
Output: 10

Input: Output measured %Inh for this item: Cc1nccc(-c2c(-c3ccc(F)cc3)ncn2CCCN2CCOCC2)n1.Cl [SB-282975]
Output: 22

Input: Output measured %Inh for this item: COc1ccc(-c2coc3ccc(-c4nnc(C)o4)cc23)cc1
Output: 4

Input: Output measured %Inh for this item: Fc1ccc(-c2nc[nH]c2-c2ccncc2)cc1 [SB-217360]
Output: 0

Input: Output measured %Inh for this item: CCn1c(-c2ccccc2)nc2cnccc21 [SB-733416]
Output: 0

Input: Output measured %Inh for this item: Fc1ccc(-c2nn3cccc(F)c3c2-c2ccncc2)cc1 [GW475620]
Output: 25

Input: Output measured %Inh for this item: O=C(Nc1n[nH]c2nc(-c3ccco3)c(Br)cc12)C1CCN(Cc2ccccc2)C1.O=C(O)[C@H](O)[C@@H](O)C(=O)O (stereo not drawn) [SB-742034]
Output: 0

Input: Output measured %Inh for this item: CSc1ccc(-c2nc3n(c2-c2ccncc2)CCC3)cc1 [SKF-105561]
Output: 0

Input: Output measured %Inh for this item: Cn1cnc2c(N)ncnc21 [SKF-97623]
Output: 0

Input: Output measured %Inh for this item: Cc1cnc(N)c(/C=C/c2cncc(C(=O)NCCc3ccc(Cl)cc3Cl)c2)c1.Cl [GSK190937]
Output: 9

Input: Output measured %Inh for this item: O=C(Nc1n[nH]c2cc(-c3ccsc3)ccc12)C1CC1 [SB-732932]
Output: 0

Input: Output measured %Inh for this item: COc1ccc(CSc2nnc(-c3ccc4nccn4c3)o2)cc1C(F)(F)F
Output: 4

Input: Output measured %Inh for this item: COc1cc2ncnc(Nc3cccc(Br)c3)c2cc1OC.Cl [GI230329]
Output: 22

Input: Output measured %Inh for this item: CNC(=O)c1ccc(C)c(-n2c(C)cc(OCc3ccc(F)cc3F)c(Br)c2=O)c1
Output: 0

Input: Output measured %Inh for this item: CC(C)c1cc(-c2ccc3c(N)n[nH]c3c2)nc(N)n1 [GSK2250882]
Output: 18

Input: Output measured %Inh for this item: CNc1cc(-c2ccc3c(N)n[nH]c3c2)nc(N)n1 [GSK2224810]
Output: 0

Input: Output measured %Inh for this item: COC(=O)c1cccc(NC(=O)NC2CCN(c3ccnc(Nc4ccc(F)cc4)n3)C2)c1 (stereo not drawn) [GSK1379725]
Output: 4

Input: Output measured %Inh for this item: Cc1c(Cn2c3ccccc3n3c(=O)cc(N4CCOCC4)nc23)cccc1C(F)(F)F [GSK2306394]
Output: 2

Input: Output measured %Inh for this item: Cn1cncc1-c1cc2c(Nc3ccc(OCc4ccccc4)cc3)ncnc2cn1 [GW281179]
Output: 19

Input: Output measured %Inh for this item: COc1ccc(Nc2nccc(-c3ccc(NC(=O)c4cc5cc(F)ccc5[nH]4)cc3)n2)cc1 [GSK1229496]
Output: 19

Input: Output measured %Inh for this item: Nc1ncnc2occ(-c3ccc4c(c3)CCN4C(=O)Cc3cc(F)ccc3F)c12 [GSK2645446]
Output: 0

Input: Output measured %Inh for this item: CC[C@@H]1CO[C@H](C(=O)Nc2ccccc2)CN1c1cc(-c2ccc3c(N)n[nH]c3c2)nc(NC)n1 [GSK2376236]
Output: 0

Input: Output measured %Inh for this item: CC(=O)c1c(C)c2cnc(Nc3ccn(C)n3)nc2n(C2CCCC2)c1=O
Output: 0
